B1: r11_951_TrROS_Hall (parent)
chain: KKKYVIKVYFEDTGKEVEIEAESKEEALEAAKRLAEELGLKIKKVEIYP

Variants of: B1
Assay: folding stability dG (cDNA display proteolysis); higher = more stable
Conditions: PBS, room temperature
Threshold check on folding stability dG: at or above 4 kcal/mol gives Condition met, strictly below gives Condition not met.

These solved cases illustrate the format of a correct answer.
V17Y :: Condition met
E18H :: Condition met
E46G :: Condition not met

// query Could you tell me if the measured folding stability dG of E37L reaches 4 kcal/mol or more?
// result Condition met

// query Could you tell me if the measured folding stability dG of I47H reaches 4 kcal/mol or more?
// result Condition met

// query Could you tell me if the measured folding stability dG of G39Y reaches 4 kcal/mol or more?
// result Condition not met

// query Could you tell me if the measured folding stability dG of E26D reaches 4 kcal/mol or more?
// result Condition met

// query Could you tell me if the measured folding stability dG of V45Y reaches 4 kcal/mol or more?
// result Condition met

// query Could you tell me if the measured folding stability dG of A21F reaches 4 kcal/mol or more?
// result Condition met

// query Could you tell me if the measured folding stability dG of E22F reaches 4 kcal/mol or more?
// result Condition met

// query Could you tell me if the measured folding stability dG of I47Y reaches 4 kcal/mol or more?
// result Condition met

// query Could you tell me if the measured folding stability dG of K7S reaches 4 kcal/mol or more?
// result Condition not met

// query Could you tell me if the measured folding stability dG of V17M reaches 4 kcal/mol or more?
// result Condition met

// query Could you tell me if the measured folding stability dG of Y9T reaches 4 kcal/mol or more?
// result Condition met

// query Could you tell me if the measured folding stability dG of K32V reaches 4 kcal/mol or more?
// result Condition met

// query Could you tell me if the measured folding stability dG of A30T reaches 4 kcal/mol or more?
// result Condition met

// query Could you tell me if the measured folding stability dG of G14Y reaches 4 kcal/mol or more?
// result Condition met

// query Could you tell me if the measured folding stability dG of Y48Q reaches 4 kcal/mol or more?
// result Condition met

// query Could you tell me if the measured folding stability dG of E16Y reaches 4 kcal/mol or more?
// result Condition met

// query Could you tell me if the measured folding stability dG of V5E reaches 4 kcal/mol or more?
// result Condition not met

// query Could you tell me if the measured folding stability dG of D12G reaches 4 kcal/mol or more?
// result Condition met

// query Could you tell me if the measured folding stability dG of E11H reaches 4 kcal/mol or more?
// result Condition met

// data source = the MegaScale stability set (Tsuboyama et al. 2023)
